tested on: HPPD polypeptides; test: coupled HPPD activity assay: turnover and residual turnover in crude extracts; assay type: biochemical, Pseudomonas fluorescens; conditions: presence of 100 μM Cmpd. 1; high substrate concentration; changes in absorbance (OD) at 320 nm
quantityKind: Residual turnover
One number for each entry.

Example molecules with recorded Residual turnover:
14 (protein, mutant HPPD polypeptide) MADLYENPMGLMGFEFIEFASPTPGTLEPIFEIMGFTKVATHRSKNVHLYRQGEINLILNNEPNSIASYFAAEHGPSVCGMAFRVKDSQKAYNRALELGAQPIHIDTGPMELNLPAIKGIGGAPLYLIDRFGEGSSIYDIDFVYLEGVERNPVGAGLKVIDHLTHNVYRGRMVYWANFYEKLFNFREARYFDIKGEYTGLTSKAMSAPDGMIRIPLNEESSKGAGQIEEFLMQFNGEGIQHVAFLTDDLVKTWDALKKIGMRFMTAPPDNYYEMLEGRLPDHGEPVDQLQARGILLDGSSVEGDKRLLLQIFSETLMGPVFFEFIQRKGDDGFGPDSFKVLFESVERDQVRRGVLTAD: 0.062
23 (protein, mutant HPPD polypeptide) MADLYENPMGLMGFEFIEFASPTPGTLEPIFEIMGFTKVATHRSKNVHLYRQGEINLILNNEPNSIASYFAAEHGPSVCGMAFRVKDSQKAYNRALELGAQPIHIDTGPMELNLPAIKGIGGAPLYLIDRFGEGSSIYDIDFVYLEGVERNPVGAGLKVIDHLTHNVYRGRMVYWANFYEKLFNFREARYFDIKGEYTGLTSKAMSAPDGMIRIPLNEESSKGAGQIEEFLMQFNGEGIQHVAFLTDDLVKTWDALKKIGMRFMTAPPDTYYEMLEGRLPDHGEPVDQLQARGILLDGSSVEGDKRLLLQIFSETLMGPVFFEFIQRKGDDGFGPDSFKVLFEQVERDQVRRGVLTAD: 0.076

Now consider a different molecule.
Task: Quick one: give measured Residual turnover for 7 (protein, mutant HPPD polypeptide) MADLYENPMGLMGFEFIEFASPTPGTLEPIFEIMGFTKVATHRSKNVHLYRQGEINLILNNEPNSIASYFAAEHGPSVCGMAFRVKDSQKAYNRALELGAQPIHIDTGPMELNLPAIKGIGGAPLYLIDRFGEGSSIYDIDFVYLEGVERNPVGAGLKVIDHLTHNVYRGRMVYWANFYEKLFNFREARYFDIKGEYTGLTSKAMSAPDGMIRIPLNEESSKGAGQIEEFLMQFNGEGIQHVAFLTDDLVKTWDALKKIGMRFMTAPGDNYYEMLEGRLPDHGEPVDQLQARGILLDGSSVEGDKRLLLQIFSETLMGPVFFEFIQRKGDDGFGPDSFKVLFESIERDQVRRGVLTAD
Output: 0.063
